measured metric: melting point

Known results for compounds:
Task: Give the measured melting point of CN1C(=O)C2(COc3cc4c(cc32)OCCO4)c2c(C(=O)Nc3ccc(F)cc3)cccc21 (stereo not drawn) .
Output: > 250 °C

Task: Give the measured melting point of "Cc1ccc2cccc(OCc3cc(N)ccc3Cl)c2n1" .
Output: 176 to 178 °C

Next, consider the following compound.
Task: Give the measured melting point of "Fc1ccc(C(CCCN2CCN(c3n[nH]c4cc(Cl)ccc34)CC2)c2ccc(F)cc2)cc1" .
Output: 202 to 204 °C

* * *

Measured melting point, listed per entry.

Task: Give the measured melting point of "CCOC(=O)Cn1c(=O)n(Cc2ccc(Br)cc2F)c(=O)c2cc(Cl)c(Cl)cc21" .
Output: 220 to 221 °C

Task: Give the measured melting point of "Clc1cccc(-c2ccc3cnc(Nc4ccc(N5CCOCC5)nc4)nn23)c1" .
Output: 221 to 222 °C

Task: Give the measured melting point of CCCCCC1CCC(C2CCC(CC(=O)CC)CC2)CC1 (centres undefined) .
Output: 107 °C

Task: Give the measured melting point of "COc1ccc2nc(N3CCN(C[C@H]4COc5ccc6nc(C)ccc6c5O4)CC3)ccc2c1" .
Output: 95 to 97 °C
